Reported fold improvement of signal/noise ratio over parent BACE017 values are given for each entry in this list.
biological target: recombinant human BACE1 (rhBACE1) (human, UniProt P56817 22-457, limits assumed); test: spot phage ELISA, plate-immobilized BACE1 against BSA
Sequence (P56817 22-457 limits assumed): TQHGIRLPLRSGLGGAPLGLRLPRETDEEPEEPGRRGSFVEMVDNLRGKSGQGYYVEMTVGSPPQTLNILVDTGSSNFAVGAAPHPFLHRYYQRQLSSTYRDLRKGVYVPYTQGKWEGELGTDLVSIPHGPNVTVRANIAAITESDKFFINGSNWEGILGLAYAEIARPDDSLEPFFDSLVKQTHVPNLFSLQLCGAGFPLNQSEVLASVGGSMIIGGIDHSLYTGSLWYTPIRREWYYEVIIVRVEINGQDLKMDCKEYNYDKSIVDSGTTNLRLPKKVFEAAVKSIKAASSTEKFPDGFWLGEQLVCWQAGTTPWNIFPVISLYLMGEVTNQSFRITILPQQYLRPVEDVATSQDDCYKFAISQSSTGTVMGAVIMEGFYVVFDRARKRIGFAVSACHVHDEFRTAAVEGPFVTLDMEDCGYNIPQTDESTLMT
No end group written: not given here.

Past entries and their recorded results:
Request the reported fold improvement of signal/noise ratio over parent BACE017 associated with NPENNYCRLLNLGCG (not shown: M13 major coat protein; peptide fused to its N-terminus) [SEQ ID NO 93]
> 5 fold

Here is the next binder: KEENIYCRLLSLGCS (not shown: M13 major coat protein; peptide fused to its N-terminus) [SEQ ID NO 71]
> 5 fold

Here is the next binder: NDENMYCRLLGLGCA (not fully specified (C-terminus, bridges); cysteine pairing not given here, not shown: M13 major coat protein; peptide fused to its N-terminus) [SEQ ID NO 95]
> 5 fold

Here is the next binder: IEESIYCRLLGFGCG (not shown: M13 major coat protein; peptide fused to its N-terminus) [SEQ ID NO 75]
> 5 fold

New cases:
Request the reported fold improvement of signal/noise ratio over parent BACE017 associated with NEENMYCRLMGIGCG (not fully specified (C-terminus, bridges); cysteine pairing not given here, not shown: M13 major coat protein; peptide fused to its N-terminus) [SEQ ID NO 86]
> 5 fold

Here is the next binder: TEESIYCRLLGLGCD (not shown: M13 major coat protein; peptide fused to its N-terminus) [SEQ ID NO 90]
> 5 fold

Here is the next binder: KEDSMYCRLLGLGCG (not fully specified (C-terminus, bridges); cysteine pairing not given here, not shown: M13 major coat protein; peptide fused to its N-terminus) [SEQ ID NO 73]
> 5 fold

Here is the next binder: TEESLYCRLLGVGCG (not fully specified (C-terminus, bridges); cysteine pairing not given here, not shown: M13 major coat protein; peptide fused to its N-terminus) [SEQ ID NO 79]
> 5 fold

Here is the next binder: NDDSLYCRLLGLGCG (not fully specified (C-terminus, bridges); cysteine pairing not given here, not shown: M13 major coat protein; peptide fused to its N-terminus) [SEQ ID NO 82]
> 5 fold
